assay: Pharmacokinetic assessment of X842 in rats (IV, single oral, repeated oral); format: in vivo, Sprague-Dawley rats; settings: female, Sprague-Dawley, rat, plasma, po, 2.4 mg/kg, female rats, single oral X842, 2.4 mg/kg (third dose group); read-out: t1/2 (converted)

{"molecule": "Cc1cccc(C)c1CNc1cc(C(=O)NCCOC(=O)CCCC(=O)O)cn2c(C)c(C)nc12 [X842, linaprazan glurate]", "half-life / h": 2.1}

====

test: Pharmacokinetic assessment of X842 in rats (IV, single oral, repeated oral); type: in vivo, Sprague-Dawley rats; settings: female, Sprague-Dawley, rat, plasma, po, 9.6 mg/kg, female rats, single oral X842 9.6 mg/kg; analyte as labelled; read-out: t1/2 (converted)

{"test-smiles": "Cc1cccc(C)c1CNc1cc(C(=O)NCCO)cn2c(C)c(C)nc12", "unit-text": "h", "half-life": 2.6}

====

experiment: Pharmacokinetic assessment of X842 in dogs (IV, single oral, repeated oral); assay type: in vivo; details: beagle, dog, plasma; male dogs, single oral dose; read-out: t1/2 (range over doses)
experimental-endpoint: half-life

{"compound": "Cc1cccc(C)c1CNc1cc(C(=O)NCCOC(=O)CCCC(=O)O)cn2c(C)c(C)nc12 [X842, linaprazan glurate]", "recorded-value": "2 to 3.4 h"}
